Data provenance: paper PMC9080233

- Tested on: human cervical carcinoma cells HeLa
- testName: Antiproliferative activity, CCK-8 assay, HeLa
- Format: cell-based
- protocolConditions: CCK-8, 72 hours, mean ± SD, read-out: IC50 HeLa
pIC50: −log10 of the molar value.
Overview of recorded pIC50 for various compounds
readoutType: pIC50

compound="C[C@H]1COc2c(N3CCN(C)CC3)c(F)cc3c(=O)c(C(=O)NCc4cn(CCCCCC(=O)NO)nn4)cn1c23 [Compound 9a]" readouttype=pIC50 reportedresult=5.28
compound="C[C@H]1COc2c(N3CCN(C)CC3)c(F)cc3c(=O)c(C(=O)OCc4cn(CCCCCCC(=O)NO)nn4)cn1c23 [Compound 8b]" readouttype=pIC50 reportedresult=5.57
compound="C[C@H]1COc2c(N3CCN(C)CC3)c(F)cc3c(=O)c(C(=O)OCc4cn(CCCCCCCC(=O)O)nn4)cn1c23 [Compound 6c]" readouttype=pIC50 reportedresult=4.84
compound="C[C@H]1COc2c(N3CCN(C)CC3)c(F)cc3c(=O)c(C(=O)OCc4cn(CCCCCCC(=O)O)nn4)cn1c23 [Compound 6b]" readouttype=pIC50 reportedresult=5.01
